# system: CDK2 (human)
# assay protocol: Enzyme Assay
measured property: IC50

Query block: Which IC50 reading was recorded for the molecule CCC(C)Cn1c(=O)cc(C)c2cnc(Nc3ccc(N4CCNCC4)cc3)nc21 (stereo unspecified) ?
Result block: > 5 µM

====

# system: ROCK2 (UniProt O75116)
# Sequence (O75116 whole entry, looked up): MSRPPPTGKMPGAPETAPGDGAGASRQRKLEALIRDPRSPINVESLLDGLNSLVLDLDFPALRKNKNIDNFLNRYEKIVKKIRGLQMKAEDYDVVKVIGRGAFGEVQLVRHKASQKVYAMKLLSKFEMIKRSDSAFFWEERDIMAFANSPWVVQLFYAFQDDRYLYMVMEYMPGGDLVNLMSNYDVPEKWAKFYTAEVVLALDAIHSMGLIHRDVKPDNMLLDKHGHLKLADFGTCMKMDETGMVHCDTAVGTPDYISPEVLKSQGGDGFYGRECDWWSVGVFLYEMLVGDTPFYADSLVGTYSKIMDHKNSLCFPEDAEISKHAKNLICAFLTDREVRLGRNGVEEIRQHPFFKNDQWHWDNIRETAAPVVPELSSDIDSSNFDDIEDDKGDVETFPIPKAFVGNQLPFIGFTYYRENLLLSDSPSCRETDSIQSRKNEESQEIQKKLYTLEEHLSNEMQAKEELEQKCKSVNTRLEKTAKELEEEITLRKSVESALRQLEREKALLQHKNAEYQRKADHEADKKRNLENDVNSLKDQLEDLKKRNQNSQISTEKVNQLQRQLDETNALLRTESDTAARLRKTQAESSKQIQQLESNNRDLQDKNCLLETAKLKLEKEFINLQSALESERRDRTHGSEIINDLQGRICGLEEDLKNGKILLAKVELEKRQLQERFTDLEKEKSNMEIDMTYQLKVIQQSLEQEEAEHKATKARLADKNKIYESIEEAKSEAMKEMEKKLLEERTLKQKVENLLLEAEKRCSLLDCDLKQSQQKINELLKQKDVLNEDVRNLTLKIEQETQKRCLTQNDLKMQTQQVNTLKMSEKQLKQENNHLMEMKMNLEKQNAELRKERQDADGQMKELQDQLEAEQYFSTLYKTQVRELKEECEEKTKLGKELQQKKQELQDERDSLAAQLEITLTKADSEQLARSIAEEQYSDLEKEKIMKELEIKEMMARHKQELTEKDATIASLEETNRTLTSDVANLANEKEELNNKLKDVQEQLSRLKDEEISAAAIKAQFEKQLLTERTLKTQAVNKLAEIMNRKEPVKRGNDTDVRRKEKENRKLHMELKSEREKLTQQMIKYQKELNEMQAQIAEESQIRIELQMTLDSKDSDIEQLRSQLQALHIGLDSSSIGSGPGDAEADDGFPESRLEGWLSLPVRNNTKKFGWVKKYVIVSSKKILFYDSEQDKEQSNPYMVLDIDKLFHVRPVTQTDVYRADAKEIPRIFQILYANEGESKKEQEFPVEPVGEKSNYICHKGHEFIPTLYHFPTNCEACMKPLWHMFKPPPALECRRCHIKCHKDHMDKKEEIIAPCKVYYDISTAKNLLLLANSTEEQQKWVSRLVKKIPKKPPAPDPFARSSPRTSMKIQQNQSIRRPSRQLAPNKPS
# assay protocol: Inhibition of ROCK2 Kinase Activity
measured property: IC50 (nM)
Respond numerically; units are nM and should not be typed.

Query block: # get_value(readout='IC50', item= NS(=O)(=O)c1ccc(Nc2nc(OCC3CCCCC3)c3nc[nH]c3n2)cc1 )
Result block: 600

====

# IC50 listing for each entry below
# system: EGFR (human)
# settings: hn5

Known results for compounds:
Query block: Returns the measured IC50 for the input compound. Input: OCc1ccc(-c2cc3c(Nc4ccc(OCc5ccccc5)cc4)ncnc3cn2)o1
Result block: 460 nM

Query block: What do you get for NC(=O)[C@H]1CCCN1Cc1ccc(-c2cc3c(Nc4ccc(OCc5ccccc5)cc4)ncnc3cn2)o1 ?
Result block: 350 nM

Query block: Next compound: CN(C)C(=O)[C@@H]1CCCN1Cc1ccc(-c2cc3c(Nc4ccc(OCc5ccccc5)cc4)ncnc3cn2)o1
Result block: 3300 nM

Query block: Can you check CS(=O)(=O)NCCNCc1ccc(-c2cc3c(Nc4ccc(OCc5ccccc5)cc4)ncnc3cn2)o1 next?
Result block: 720 nM

Here is the next item to consider.
Query block: Endpoint output: IC50 of CN(CC(N)=O)Cc1ccc(-c2cc3c(Nc4ccc(OCc5ccccc5)cc4)ncnc3cn2)o1 . Value?
Result block: 350 nM

====

Documented pIC50 across a set of compounds
# system: EGFR (murine) (UniProt P00533)
# Sequence (P00533 whole entry, looked up): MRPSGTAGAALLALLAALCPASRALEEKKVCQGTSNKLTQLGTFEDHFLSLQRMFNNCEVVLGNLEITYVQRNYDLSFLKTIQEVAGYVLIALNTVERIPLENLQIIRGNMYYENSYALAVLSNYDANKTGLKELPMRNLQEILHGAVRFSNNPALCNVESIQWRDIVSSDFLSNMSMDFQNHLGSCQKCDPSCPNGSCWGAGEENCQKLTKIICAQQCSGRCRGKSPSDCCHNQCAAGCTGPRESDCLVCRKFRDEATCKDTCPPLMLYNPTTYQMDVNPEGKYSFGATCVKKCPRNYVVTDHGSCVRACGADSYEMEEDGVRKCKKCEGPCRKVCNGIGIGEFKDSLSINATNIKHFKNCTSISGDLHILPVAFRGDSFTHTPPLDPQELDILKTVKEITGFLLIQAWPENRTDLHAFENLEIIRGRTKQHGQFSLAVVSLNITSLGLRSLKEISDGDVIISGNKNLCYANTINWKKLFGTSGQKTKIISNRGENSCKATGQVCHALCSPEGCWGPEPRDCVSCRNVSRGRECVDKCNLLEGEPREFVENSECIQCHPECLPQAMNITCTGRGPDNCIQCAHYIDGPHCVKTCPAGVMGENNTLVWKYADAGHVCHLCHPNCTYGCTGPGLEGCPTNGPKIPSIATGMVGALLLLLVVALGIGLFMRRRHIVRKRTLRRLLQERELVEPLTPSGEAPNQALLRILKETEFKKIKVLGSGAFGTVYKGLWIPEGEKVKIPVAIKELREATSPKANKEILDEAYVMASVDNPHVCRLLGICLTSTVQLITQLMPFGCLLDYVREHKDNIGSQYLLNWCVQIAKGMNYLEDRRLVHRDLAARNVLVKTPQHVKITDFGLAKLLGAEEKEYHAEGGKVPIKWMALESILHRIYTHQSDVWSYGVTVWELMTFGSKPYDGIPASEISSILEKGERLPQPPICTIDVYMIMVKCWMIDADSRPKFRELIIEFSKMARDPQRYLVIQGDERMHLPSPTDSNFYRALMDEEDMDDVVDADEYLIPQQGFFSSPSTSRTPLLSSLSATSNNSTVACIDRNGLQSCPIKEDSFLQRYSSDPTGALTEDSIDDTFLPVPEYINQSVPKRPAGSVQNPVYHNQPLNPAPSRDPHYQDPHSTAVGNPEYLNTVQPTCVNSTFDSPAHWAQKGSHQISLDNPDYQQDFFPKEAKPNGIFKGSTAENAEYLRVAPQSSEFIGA
# settings: nih3t3
Remember, pIC50 is on a log scale: it is -log10 of the molar concentration.

Query block: Look up pIC50: COc1cc2ncnc(Nc3cccc(C#N)c3)c2cc1OC
Result block: 6.70

Others:
Query block: Which measured pIC50 value corresponds to Cc1ccc2ncnc(Nc3cccc(C(F)(F)F)c3)c2c1 ?
Result block: 6.05

====

# system: CDK2 (human) (UniProt P24941)
# assay protocol: Enzyme Assay
Entries are grouped by IC50 into these classes: zone 1 (below 100 nM), zone 2 (100 nM to below 3000 nM), zone 3 (3000 nM or more)

Reference set, count: 3
Query block: Form field 'band' for COc1ccc(CNC=C2C(=O)NC(=O)c3ccc(-c4ccccc4)cc32)cc1O
Result block: zone 3

Query block: Now this one: COc1ccc(C(=O)Nc2n[nH]c3ccc(NC(=O)C(N)c4cccc(Cl)c4)cc23)cc1 (stereo unspecified)
Result block: zone 2

Query block: Try the compound Cn1cc(-c2cnn3c(N)cc(C4CCCNC4)nc23)cn1 (stereo unspecified)
Result block: zone 3

Others:
Query block: Note: place this compound into its band. Item: Cn1cc(-c2c(C3CCCNC3)nc3c(-c4cnn(C)c4)cnn3c2N)cn1 (stereo unspecified)
Result block: zone 3

Query block: Also need CC(C)(C)C(=O)N1Cc2c(NC(=O)c3ccc(F)cc3)n[nH]c2C1(C)C , thanks.
Result block: zone 1

Query block: Also need CN(c1ncccc1CNc1nc(Nc2ccc3c(c2)CC(=O)N3)ncc1C(F)(F)F)S(C)(=O)=O , thanks.
Result block: zone 2

Query block: Do the same for [O-][n+]1cccc(CNc2cc(-c3ccccc3)nc3c(Br)cnn23)c1 please
Result block: zone 1

Query block: Now this one: CCC(C)Cn1c(=O)cc(C)c2cnc(Nc3ccc(N4CCNCC4)cc3)nc21 (stereo unspecified)
Result block: zone 3

Query block: Similarly, O=C1/C(=C2\Nc3ccccc3C2=O)Nc2ccccc21 ?
Result block: zone 3

Query block: Also O=c1ccc2cnc(Nc3ccc(N4CCNCC4)cc3)nc2n1C1CCCC1 , if possible.
Result block: zone 1

Query block: Would you mind doing N#CC1(c2cccc(C(=O)Nc3cc(Oc4ccc5nc(NC(=O)C6CC6)sc5n4)ccc3F)c2Cl)CC1 as well?
Result block: zone 2

Query block: Check CSC(O)C(=O)N1CCN(c2ccc(Nc3nccc(-c4cnc(C)n4C(C)C)n3)cc2)CC1 (stereo unspecified) too.
Result block: zone 1
